Origin of values: ChEMBL document CHEMBL1121782

Assay: Water solubility of the compound
Assay type: ADME
Details: water; read-out: S
READOUT NAME: solubility

{"SMILES STRING": "Cc1cc2c(ccc3c(C)cc(=O)oc32)o1", "EXPERIMENTAL VALUE": "8 µg/mL"}
{"SMILES STRING": "COCc1c(C)oc2ccc3c(C)cc(=O)oc3c12", "EXPERIMENTAL VALUE": "15.3 µg/mL"}
{"SMILES STRING": "Cc1oc2ccc3c(C)cc(=O)oc3c2c1CN.Cl", "EXPERIMENTAL VALUE": "> 1000 µg/mL"}
{"SMILES STRING": "Cc1oc2ccc3c(C)cc(=O)oc3c2c1CO", "EXPERIMENTAL VALUE": "17.1 µg/mL"}

---

Species: Mus musculus
Test: Compound was evaluated for its ability to inhibit RNA synthesis in Ehrlich ascites tumor cells by irradiation (365 nM),
Assay type: functional
READOUT NAME: D50 (quanta*10e-18)

{"SMILES STRING": "Cc1cc2c(ccc3c(C)cc(=O)oc32)o1", "EXPERIMENTAL VALUE": 13.5}
{"SMILES STRING": "COCc1c(C)oc2ccc3c(C)cc(=O)oc3c12", "EXPERIMENTAL VALUE": 13.8}
{"SMILES STRING": "Cc1oc2ccc3c(C)cc(=O)oc3c2c1CN.Cl", "EXPERIMENTAL VALUE": 100}
{"SMILES STRING": "Cc1oc2ccc3c(C)cc(=O)oc3c2c1CO", "EXPERIMENTAL VALUE": 13.8}

---

Let's look at some compounds and their measured S.
Experiment: Water solubility of the compound
Type: ADME
Settings: buffer

{"SMILES STRING": "COCc1c(C)oc2ccc3c(C)cc(=O)oc3c12", "READING UNIT": "M l-1", "COMPARISON OPERATOR": "=", "S": 0.000056}
{"SMILES STRING": "Cc1oc2ccc3c(C)cc(=O)oc3c2c1CO", "READING UNIT": "M l-1", "COMPARISON OPERATOR": "=", "S": 0.00007}
{"SMILES STRING": "Cc1cc2c(ccc3c(C)cc(=O)oc32)o1", "READING UNIT": "M l-1", "COMPARISON OPERATOR": "=", "S": "3.7e-05"}
{"SMILES STRING": "Cc1oc2ccc3c(C)cc(=O)oc3c2c1CN.Cl", "READING UNIT": "M l-1", "COMPARISON OPERATOR": ">", "S": 0.004}

---

System: Nucleic Acid
Assay: The compound was tested for its ability to bind to calf thymus DNA
Type: nucleic-acid assay
Details: Bos taurus
Quick reference: K of the listed items.
READOUT NAME: K

{"SMILES STRING": "Cc1oc2ccc3c(C)cc(=O)oc3c2c1CO", "EXPERIMENTAL VALUE": 1250}
{"SMILES STRING": "COCc1c(C)oc2ccc3c(C)cc(=O)oc3c12", "EXPERIMENTAL VALUE": 700}
{"SMILES STRING": "Cc1oc2ccc3c(C)cc(=O)oc3c2c1CN.Cl", "EXPERIMENTAL VALUE": 16300}
{"SMILES STRING": "Cc1cc2c(ccc3c(C)cc(=O)oc32)o1", "EXPERIMENTAL VALUE": 1400}
